Assignment: determine reported pIC50 for the given compounds.
# target-desc: human KMO (Homo sapiens)
# Construct: full-length human KMO was cloned as an N-terminal GST fusion; GST (N); made in house; host or cells: Sf9 insect cells, used as a membrane fraction
# Sequence (O15229 whole entry, the tested form may be a part): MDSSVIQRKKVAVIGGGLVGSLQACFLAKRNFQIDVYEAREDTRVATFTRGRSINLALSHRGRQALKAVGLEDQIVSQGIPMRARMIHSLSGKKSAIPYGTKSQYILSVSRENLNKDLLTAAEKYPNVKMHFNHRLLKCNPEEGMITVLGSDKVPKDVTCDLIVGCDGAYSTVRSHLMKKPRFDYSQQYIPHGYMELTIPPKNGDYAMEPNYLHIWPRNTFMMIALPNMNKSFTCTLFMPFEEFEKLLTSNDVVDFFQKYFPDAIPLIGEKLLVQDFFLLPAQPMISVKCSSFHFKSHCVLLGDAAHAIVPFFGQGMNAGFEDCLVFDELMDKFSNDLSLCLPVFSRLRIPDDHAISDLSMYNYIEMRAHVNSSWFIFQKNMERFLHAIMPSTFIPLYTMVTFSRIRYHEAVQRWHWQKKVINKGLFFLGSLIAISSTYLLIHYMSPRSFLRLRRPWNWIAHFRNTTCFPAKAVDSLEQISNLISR
# experiment-description: Rapidfire mass spectrometry IC50 assay, isolated human KMO
# Format: biochemical
# condition-set: from inhibition curves of Fig. 3b; read-out: IC50 Human KMO
Scale explanation: pIC50 corresponds to minus log10 of a concentration expressed in moles per litre.

What does the record list as pIC50 for `Cc1ccc([C@@H](C)Oc2cc3onc(CCC(=O)O)c3cc2Cl)nn1` ? 8.64

What does the record list as pIC50 for `O=C(O)CCn1c(=O)oc2cc(OCc3ccccn3)c(Cl)cc21` ? 8.44

What does the record list as pIC50 for `Cc1cc2oc(=O)n(CCC(=O)O)c2cc1Cl` ? 8.00
